All values here come from the supplement of paper PMC3334620.

Molecular target: Abf1 (UniProt P14164)
Sequence: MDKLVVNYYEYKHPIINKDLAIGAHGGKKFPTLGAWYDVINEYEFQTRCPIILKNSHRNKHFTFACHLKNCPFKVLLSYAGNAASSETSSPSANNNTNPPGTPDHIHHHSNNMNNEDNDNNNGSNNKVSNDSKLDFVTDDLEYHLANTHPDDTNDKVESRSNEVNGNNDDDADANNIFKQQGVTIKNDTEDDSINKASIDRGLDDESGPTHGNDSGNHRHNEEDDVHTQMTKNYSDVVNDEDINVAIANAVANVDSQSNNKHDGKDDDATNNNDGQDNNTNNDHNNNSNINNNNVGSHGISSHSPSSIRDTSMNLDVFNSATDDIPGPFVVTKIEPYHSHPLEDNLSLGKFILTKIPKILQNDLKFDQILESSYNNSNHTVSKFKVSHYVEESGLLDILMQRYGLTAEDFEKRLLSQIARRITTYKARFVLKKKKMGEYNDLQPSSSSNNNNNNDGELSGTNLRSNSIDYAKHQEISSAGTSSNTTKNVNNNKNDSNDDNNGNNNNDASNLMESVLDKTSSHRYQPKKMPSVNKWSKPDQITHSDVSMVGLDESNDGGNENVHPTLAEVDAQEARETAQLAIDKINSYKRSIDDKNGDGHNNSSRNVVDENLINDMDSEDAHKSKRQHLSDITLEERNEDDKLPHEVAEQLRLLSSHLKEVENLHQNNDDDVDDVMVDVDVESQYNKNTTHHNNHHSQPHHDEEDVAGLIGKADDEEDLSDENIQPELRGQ
Test: PBM E-score (8-mer binding enrichment) (E-score (-0.5 to 0.5)); higher = stronger / more preferred TF binding
Details: protein concentration: 200 nM; construct: GST-full length
Whole data set: some 33,000 sequences, median “E-score (-0.5 to 0.5)” near -0.015, cut for the highest 2% near 0.3. For the sample, the highest values were picked, then their nearest neighbours and some sequences at random.
Below, each of the sequences is paired with its reported PBM E-score value.
ENDPOINT_NAME: PBM E-score

# SEQUENCE_RECORD, TEST_RESULT
data = [
    ("AAACGATA", 0.376),
    ("ATACGTGG", 0.155),
    ("AAACGATT", 0.292),
    ("GCCCTCTA", -0.224),
    ("AGACAGTG", -0.0919),
    ("CGACATTC", 0.0424),
    ("GACGATAA", 0.363),
    ("GCGAGGAA", -0.0784),
    ("CACGATAA", 0.296),
    ("CACGATTA", 0.247),
    ("CGAGTCAA", -0.0144),
    ("TAGCGAAA", -0.00307),
    ("ACACGATA", 0.295),
    ("CGACATCA", 0.315),
    ("CCGCCATC", -0.26),
    ("GAGCTGCC", -0.0575),
    ("AGGCACGG", 0.062),
    ("CGACATTA", 0.317),
    ("TAGCCCTA", -0.149),
    ("CAACGATA", 0.25),
    ("GGGGCATA", -0.184),
    ("TACGATAA", 0.179),
]
